# procedure_summary: Octanol-phosphate buffer partition coefficient, log D of the compound at pH 7.4 by shake flask method
# Assay type: physicochemical
Assignment: determine reported logD for the given compounds.

**Q:** // query logD value for entry `COC[C@@H](C)n1cc(Cl)nc(Nc2cc(C)c(OC)cc2C)c1=O`
**A:** 3.4

**Q:** Record: `COC[C@@H](C1CC1)n1cc(Cl)nc(Nc2cc(C)c(OCF)cc2C)c1=O`
**A:** 3.1

**Q:** Record: `COCC(COC)n1cc(Cl)nc(Nc2c(Cl)cc(OCF)cc2Cl)c1=O`
**A:** 3.1

**Q:** Record: `COCC(COC)n1cc(Br)nc(Nc2c(C)cc(OC)cc2C)c1=O`
**A:** 2.8

**Q:** Record: `COC[C@@H](C1CC1)n1cc(Cl)nc(Nc2cc(C)c(OCCF)cc2C)c1=O`
**A:** 3.7

**Q:** Record: `COCC(COC)n1cc(Br)nc(Nc2cc(C)c(OC)cc2C)c1=O`
**A:** 3.8

* * *

# Tested on: Liver microsomes
# procedure_summary: Drug metabolism in rat liver microsomes assessed as compound depletion per mg of protein at 3 uM
# Type: ADME, Microsome
Assignment: determine reported Drug metabolism for the given compounds.
Write the answer as a number in pmol/min, unit excluded.

**Q:** // query Drug metabolism value for entry `COC[C@@H](C)n1cc(Cl)nc(Nc2cc(C)c(OC)cc2C)c1=O`
**A:** 0.19

**Q:** Record: `COC[C@@H](C1CC1)n1cc(Cl)nc(Nc2cc(C)c(OC)cc2C)c1=O`
**A:** 0.23

**Q:** Record: `COCC(COC)n1cc(Cl)nc(Nc2c(Cl)cc(OC)cc2Cl)c1=O`
**A:** 0.17

**Q:** Record: `COCC(COC)n1cc(Br)nc(Nc2c(C)cc(OCF)cc2C)c1=O`
**A:** 0.26

**Q:** Record: `COCC(COC)n1cc(Br)nc(Nc2cc(C)c(OC)cc2C)c1=O`
**A:** 0.14

**Q:** Record: `COC[C@@H](C1CC1)n1cc(Cl)nc(Nc2cc(C)c(OCCF)cc2C)c1=O`
**A:** 0.12

**Q:** Record: `COCC(COC)n1cc(Cl)nc(Nc2c(Cl)cc(OCCF)cc2Cl)c1=O`
**A:** 0.12

* * *

# Tested on: Liver microsomes
# procedure_summary: Drug metabolism in human liver microsomes assessed as compound depletion per mg of protein at 3 uM
# Assay type: ADME, Microsome
Assignment: determine reported Drug metabolism for the given compounds.
Write the answer as a number in pmol/min, unit excluded.

**Q:** // query Drug metabolism value for entry `COCC(COC)n1cc(Br)nc(Nc2cc(C)c(OC)cc2C)c1=O`
**A:** 0.07

**Q:** Record: `COCC(COC)n1cc(Cl)nc(Nc2c(Cl)cc(OCCF)cc2Cl)c1=O`
**A:** 0.07

**Q:** Record: `COC[C@@H](C1CC1)n1cc(Cl)nc(Nc2cc(C)c(OCCF)cc2C)c1=O`
**A:** 0.07

* * *

# subject_of_test: Corticotropin-releasing factor receptor 1 (Rattus norvegicus, UniProt P35353)
# Sequence (P35353 whole entry): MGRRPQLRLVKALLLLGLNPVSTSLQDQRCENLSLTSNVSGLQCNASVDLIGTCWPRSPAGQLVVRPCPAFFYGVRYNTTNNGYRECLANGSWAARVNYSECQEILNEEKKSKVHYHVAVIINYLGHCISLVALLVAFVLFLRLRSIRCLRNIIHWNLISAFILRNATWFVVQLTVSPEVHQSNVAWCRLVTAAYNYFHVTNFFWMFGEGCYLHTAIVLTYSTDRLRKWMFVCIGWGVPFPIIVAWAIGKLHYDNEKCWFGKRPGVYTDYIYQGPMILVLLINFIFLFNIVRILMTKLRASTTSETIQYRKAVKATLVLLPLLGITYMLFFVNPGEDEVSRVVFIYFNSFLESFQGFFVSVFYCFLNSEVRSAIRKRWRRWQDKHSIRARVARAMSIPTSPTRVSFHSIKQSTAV
Assignment: determine reported IC50 for the given molecules.

**Q:** // query IC50 value for entry `COCC(COC)n1cc(Br)nc(Nc2c(C)cc(OCF)cc2C)c1=O`
**A:** 4.3 nM

**Q:** Record: `COCC(COC)n1cc(Cl)nc(Nc2c(Cl)cc(OCF)cc2Cl)c1=O`
**A:** 5.4 nM

**Q:** Record: `COCC(COC)n1cc(Br)nc(Nc2cc(C)c(OC)cc2C)c1=O`
**A:** 0.68 nM
